Data origin, for the record: patent US20210355194A1

# Experimental Target: SARS-CoV-2 spike on live SARS-CoV-2 virus (SARS-CoV-2, UniProt P0DTC2 14-1273)
# Run Description: cell-based or functional assay
Observation Type: PRNT90 (ng/mL)
# value in ng/mL; strip the unit string

INSERT INTO results (binder, observation_type, assay_value) VALUES
  ('variant 5-34 (Fc fusion) VHH: EVQLVESGGGLVQPGGSLRLSCAASGRTFSRYIMGWFRQAPGKEREFVAAISWSGGDNTYYADSVKGRFTISADNSKNTAYLQMNSLKPEDTAVYYCAAYRIVVGGTSPGDWRWGQGTLVTVSS', 'PRNT90', 15.6);

Please find the next binder below.
// query # return recorded PRNT90 for entry variant 6-85 (Fc fusion) VHH: EVQLVESGGGLVQPGGSLRLSCAASGGTFSVFAMGWFRQAPGKEREFVSAINWSGGSLLYADSVKGRFTISADNSKNTAYLQMNSLKPEDTAVYYCALFGDFDYWGQGTLVTVSS
// result 62.5
